Items are presented alongside their recorded Bottom (best-fit).
Molecular target: T1, human TIGIT over-expressed on cells (human, UniProt Q495A1 22-244)
T1 construct: also called CHO-K1/human TIGIT cells; CHO cells expressing human TIGIT
T1 sequence: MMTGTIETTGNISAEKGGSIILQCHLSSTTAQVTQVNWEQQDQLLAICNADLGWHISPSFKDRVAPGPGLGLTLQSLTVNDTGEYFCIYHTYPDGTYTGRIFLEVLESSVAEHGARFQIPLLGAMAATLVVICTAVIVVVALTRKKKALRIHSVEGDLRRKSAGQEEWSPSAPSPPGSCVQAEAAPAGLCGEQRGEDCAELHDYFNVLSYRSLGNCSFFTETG
Assay: competition FACS, CHO cells expressing human TIGIT; competitor PVR recombinant protein
observed property: Bottom (best-fit)

• 128E3G7F5 (antibody, V domains shown, Mouse monoclonal antibody; also called mouse anti-human TIGIT monoclonal antibody 128E3G7F5) VH: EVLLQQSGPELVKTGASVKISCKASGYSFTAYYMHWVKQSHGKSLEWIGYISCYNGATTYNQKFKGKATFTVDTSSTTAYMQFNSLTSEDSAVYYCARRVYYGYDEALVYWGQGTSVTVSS VL: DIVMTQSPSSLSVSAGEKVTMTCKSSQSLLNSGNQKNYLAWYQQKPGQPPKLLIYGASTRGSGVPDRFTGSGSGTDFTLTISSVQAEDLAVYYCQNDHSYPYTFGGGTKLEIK = 8.8
• 70A11A8E6 (antibody, V domains shown, Mouse monoclonal antibody; also called mouse anti-human TIGIT monoclonal antibody 70A11A8E6) VH: DVQLQESGPGLVKPSQSLSLTCTVTGYSITSDYAWNWIRQFPGNKLEWMGYIIYSGSTSYNPSLKSRISITRDTSKNQFFLQLNSVTTEDTATYYCARGWFRRPDYWGQGTTLTVSS VL: DIVMTQSHEFMSTSLGDRVSITCKASQDVSTAVAWHQQKPGQSPKQLIYSASYRYTGVPDRFTGSGSGTDFTFTISNMQAEDLAVYYCQQHYSVPLTFGAGTKLELK = 19.6
• 83G6H11C12 (antibody, V domains shown, Mouse monoclonal antibody; also called mouse anti-human TIGIT monoclonal antibody 83G6H11C12) VH: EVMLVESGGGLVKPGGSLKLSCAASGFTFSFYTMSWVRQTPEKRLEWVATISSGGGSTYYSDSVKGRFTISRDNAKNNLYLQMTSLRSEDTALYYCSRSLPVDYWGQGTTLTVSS VL: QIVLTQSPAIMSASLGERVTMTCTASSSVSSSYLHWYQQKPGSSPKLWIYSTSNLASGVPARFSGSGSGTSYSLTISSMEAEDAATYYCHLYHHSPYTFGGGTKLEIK = 12.9
• 121C2F10B5 (antibody, V domains shown, Mouse monoclonal antibody; also called mouse anti-human TIGIT monoclonal antibody 121C2F10B5) VH: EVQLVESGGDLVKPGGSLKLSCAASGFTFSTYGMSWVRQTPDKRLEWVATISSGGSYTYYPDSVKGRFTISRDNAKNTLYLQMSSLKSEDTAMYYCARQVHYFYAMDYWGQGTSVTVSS VL: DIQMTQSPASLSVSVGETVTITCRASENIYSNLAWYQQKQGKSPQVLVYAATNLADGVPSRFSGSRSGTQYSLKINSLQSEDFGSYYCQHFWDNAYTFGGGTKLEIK = 11.8
• 104G12E12G2 (antibody, V domains shown, Mouse monoclonal antibody; also called mouse anti-human TIGIT monoclonal antibody 104G12E12G2) VH: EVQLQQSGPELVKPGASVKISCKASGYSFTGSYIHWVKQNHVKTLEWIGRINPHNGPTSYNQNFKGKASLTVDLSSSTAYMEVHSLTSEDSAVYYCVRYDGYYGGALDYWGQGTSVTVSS VL: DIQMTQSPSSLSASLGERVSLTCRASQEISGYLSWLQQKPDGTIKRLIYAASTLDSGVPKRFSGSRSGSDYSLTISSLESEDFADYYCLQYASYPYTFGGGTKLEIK = 8.9
